Just for reference, the supplement of paper PMC10567573 is where these values come from.

B1: DVL3 (parent)
chain: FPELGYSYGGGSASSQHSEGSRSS

- Variants of: B1
- Measurement Description: protein stability index of a GFP-peptide fusion (GPS, HEK-293T) (PSI 1-6); higher = more stable;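 also: lentivirally expressed fusions sorted by FACS into six bins by GFP to DsRed ratio, PSI derived from sequencing read proportions per bin multiplied by bin number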
- Recorded Conditions: c terminus: a fixed tail appended
Experimental Readout: protein stability index

FPELGYSYGGGSASSQHSEPSRSS = 2.94
FPELGYSSGGGSASSQHSEGSRSS = 4.09
FPELGYSYGGGSASSQKSEGSRSS = 3.12
FPELGYSYGGGSASSQHSEGSRIS = 3.34
FPELGYSYGGGSASVQHSEGSRSS = 3.2
FPELGYSYGGGSAKSQHSEGSRSS = 3.51
FAELGYSYGGGSASSQHSEGSRSS = 2.87
FPELGYSYGGGSASSQHHEGSRSS = 2.95
FPRLGYSYGGGSASSQHSEGSRSS = 3.41
FPELGYSYGGGRASSQHSEGSRSS = 2.91
FPELGYSYGGGSASSQHSEGSRSR = 3.69
FPMLGYSYGGGSASSQHSEGSRSS = 3.5
FCELGYSYGGGSASSQHSEGSRSS = 1.99
FPELDYSYGGGSASSQHSEGSRSS = 4.59
FPELGYSYGGGSASSQHSEGSASS = 3.41
FPELGYSYGGNSASSQHSEGSRSS = 2.98
FPELGYSYGFGSASSQHSEGSRSS = 2.22
FPELGYSYGGGSASSPHSEGSRSS = 3.31
FPELGYYYGGGSASSQHSEGSRSS = 2.19
FPELGYSYGGGSASSQHSEHSRSS = 2.9
FPELGYSYGGGSKSSQHSEGSRSS = 2.63
FPELGYSYGGGSASSQHSEGSRSI = 2.37
FPELGYSYGGGSASSQHSEVSRSS = 2.75
FPELGYSYGGGSASSQHSIGSRSS = 2.94
FPELAYSYGGGSASSQHSEGSRSS = 2.91
FPELGYSYGGVSASSQHSEGSRSS = 2.81
FPELGYSYGGGSASSQHSEGTRSS = 3.24
FPELGYSYGGLSASSQHSEGSRSS = 2.57
FPELGMSYGGGSASSQHSEGSRSS = 3.71
FPNLGYSYGGGSASSQHSEGSRSS = 2.63
FPELGYSYGGGSASSQHSEGSYSS = 3.21
FPELGYSYGGGSASWQHSEGSRSS = 1.75
FPEKGYSYGGGSASSQHSEGSRSS = 2.98
FPELNYSYGGGSASSQHSEGSRSS = 3.96
FPELGYSYLGGSASSQHSEGSRSS = 1.6
FPEQGYSYGGGSASSQHSEGSRSS = 3.35
FPELGYSYGGESASSQHSEGSRSS = 3.22
FPELGYSYGGGSASSQHSSGSRSS = 3.16
FPELGYSYGGGSASSDHSEGSRSS = 3.58
FPELGYSYRGGSASSQHSEGSRSS = 2.91
FPELGESYGGGSASSQHSEGSRSS = 4.76
FPELKYSYGGGSASSQHSEGSRSS = 3.98
RPELGYSYGGGSASSQHSEGSRSS = 4.86
FPELGYSDGGGSASSQHSEGSRSS = 4.75
FPELGYSYGGGSASSHHSEGSRSS = 3.12
FPELGYSYGGGSASSQGSEGSRSS = 3.07
